test: yeast display, Sf9 membrane polyspecificity reagent, FACS + sequencing; frameworks hold sequencing errors
experimental readout: polyreactivity (PSR sort gate)

primary sequence	polyreactivity (PSR sort gate)
QVQLVESGGGLVQAGGSLRLSCAASGSIFPLYVMGWYRQAPGKERELVAAISSAADTYYADSVKGRFTISRDNAKNTVYLQMNSLKPEDTAVYYCAAAVLYWVGYGYWGQGTQVTVSS	low polyreactivity
QVQLVESAGGLVQAGGSLRLSCADSGRLFYLYARGWYRQAPGKERELVAAISSTGRTTYADSVKGRFTISRDNAKNTVYLQMNSLKPEDTAVYYGAADFRLSGSYGGFDYWGQGTQVTVSS	low polyreactivity
QVQLVESGGGIVQAGGSHRLSCAASGRTFRYNAMGWYRQAPGKERELVAAISGRGSSTYYADSVKGRFTISRDNAKNTVYLQMNSLKPEDTAVYYCAALPASVRRPGWHDYWGQGTQVTVSS	high polyreactivity
QVQIVESGGGLVQAGGSLRLSCDASGFTFFKYAMGWYRHAPGKERELVATISIDCITNYADSVKGRFTISRDNAKNTVYLQMNSLKPEDTAVYYCNARSLYQQLGYWGQGTQVTVSS	low polyreactivity
QVQLVESGGGLVQAGGSLRLSCAASGRIFGYYTMGWYRQAPGKERELVAGITRRGGRTYYADSVKGRFTISRDNAKNTVYLQMNSLKPEDTAVYYCDVRSGVNFYYWGQGTQVTVSS	high polyreactivity

// query polyreactivity (PSR sort gate) value for entry `QVQLVESGGGLVQAGGSLRLICAAAGFIFKRYAMGWYRQAPGKERELVAAITSNGGRTYYADSVKGRFTISRDNAKNTVYFQMNSLKPEDTEVYYCARVSQYYEQDDYWGQGTQVTVSS`
high polyreactivity

// query polyreactivity (PSR sort gate) value for entry `QVQLVESGGGLVQAGGSLRLSCAASGRTFEGYAMGWYRQAPGKERELVAAISGSSGSTYYADSVKGRFTISRDNAKNTVYLQMNSLKPEDTAVYYCNADYDWPGGSDYWGQGTQVTVSS`
low polyreactivity

// query polyreactivity (PSR sort gate) value for entry `QVQLVESGVGSVQAGGSLRLSCAASGATFPGNAMGWYRQAPGKERELVAAIRDRGTSTYDADSVKGRFTISRDNAKNTVYLQMNSLKPEDTAVYYCAAASRVAKGRWRLYDYWGQGTQVTLSS`
high polyreactivity

// query polyreactivity (PSR sort gate) value for entry `QVQLVESGGGLVQAGGSLRLSCAASGFTFRRYAMGWYRQAPGKERELVAAISTSGGRTYYADSVKGRFTISRDYAKITVYLQMNSLKPEDSAVYDCNAAGGYRTSPSDYWGQGTQVTVSS`
high polyreactivity

// query polyreactivity (PSR sort gate) value for entry `QVQLVESGGGLVQAGGSLRLSCAASGSIFFLYAMGWYRQAPGKERELVAAISCSGGRTYYADSVKGRFTISRDNAKNTDYIQMNSLKPEDTAVYYCAASYSGRQDRYPHYDYWGQGTQVTVSS`
low polyreactivity

// query polyreactivity (PSR sort gate) value for entry `QVQLVESGGGLVQAGGSLRLSCAASGRIFQNYAMGWYRQATGKERELVAAIRRSSGRSYYADSVKGRFTISRDNAKNTVYLLMNSLKPEDTAVYYCNAVRGEEYDYWGQGTQVTVSS`
high polyreactivity
